Data provenance is the supplement of paper PMC6757056.

B1: library; a variant is named by its letters at N, in order (parent)
chain: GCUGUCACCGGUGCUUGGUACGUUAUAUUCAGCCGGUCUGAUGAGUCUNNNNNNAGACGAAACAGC

Variants of: B1
Experiment: normalized RNA/DNA level without ligand (relative to sTRSVctl = 100) (log10 (% of sTRSVctl)); HEK293T overexpressing SLC46A1; higher = less ribozyme self-cleavage, higher mRNA level
Settings: without (6R,S)-folinic acid; ligand present: no
observable: normalized RNA/DNA level without ligand (log10)
Respond numerically, and do not add a unit to the figure.

These solved cases illustrate the format of a correct answer.
>>> measured_number("AUGUCC")
2.04
>>> measured_number("GUGCAA")
1.98
>>> measured_number("GAUUAG")
1.95
>>> measured_number("UAGGCU")
2.03
>>> measured_number("CCUCGA")
2

For the variant UUGAUA , what normalized RNA/DNA level without ligand (log10) is on record?
1.98

# get_value(readout='normalized RNA/DNA level without ligand (log10)', item= CAACAA )
1.97

Need normalized RNA/DNA level without ligand (log10) of UAUCGC , thanks.
2.01

Given AAACGU , state its recorded normalized RNA/DNA level without ligand (log10).
1.97

Could you tell me which normalized RNA/DNA level without ligand (log10) is on file for AUGCGC ?
2.02

Give its normalized RNA/DNA level without ligand (log10) value. Item: CUGCCG
2.04

# input variant: GUUCAA ; wanted: its normalized RNA/DNA level without ligand (log10)
1.98

Can you share its normalized RNA/DNA level without ligand (log10)? I mean this variant: CGGCUC
2.05
